- Tested on: TAB165
- Measurement Notes: qHTS profiling for inhibitors of Plasmodium falciparum proliferation (AID 504749); note: nearly all actives have a fitted effect of over 60% in size
- Condition Label: P. falciparum in erythrocytes, SYBR Green DNA, 72 h; series mostly up to 28.7 µM
Inconclusive results are not listed. Activity calls are given as the source filed them. Calls come from the whole dose curve; as a rule, active = well fitted inhibition curve with a large enough effect; inconclusive = small, poorly fitted or top-dose-only effect; inactive = flat fitted curve, though single readings scatter.
The reply should be one of these categories: active, inactive

// known answers, use as guide
[[record]]
molecule = "O=C1C(I)=CC(=C(c2cc(I)c(O)c(I)c2)c2ccccc2C(=O)O)C=C1I"
measurement_target = "TAB165"
assigned_class = "inactive"

[[record]]
molecule = "C[C@@H]1C(SC2Cn3cnc[n+]3C2)=C(C(=O)[O-])N2C(=O)[C@H]([C@@H](C)O)[C@@H]12 (stereo partly drawn)"
measurement_target = "TAB165"
assigned_class = "inactive"


Could you check what this test reported for OCCN1CC(O)C(O)C(O)C1CO (stereo not drawn) ?
inactive

Now consider O=C(OC[C@@H]1O[C@@](O)(COC(=O)c2cccnc2)[C@H](OC(=O)c2cccnc2)[C@H]1OC(=O)c1cccnc1)c1cccnc1 .
inactive

Input Cc1cn([C@H]2CC(F)[C@@H](CO)O2)c(=O)[nH]c1=O (stereo partly drawn)
inactive

Ok, now CCC(=O)O[C@]1(C(=O)CCl)[C@@H](C)CC2C3C[C@H](F)C4=CC(=O)C=CC4(C)[C@@]3(F)C(O)CC21C (stereo partly drawn)
active

Quick one: CCCCCCCCCCCC(=O)OCC(O)C1OCC(O)C1O (stereo not drawn)
inactive

Same thing, different molecule: CN1[C@H]2CC(OC(=O)[C@H](CO)c3ccccc3)C[C@H]1[C@H]1O[C@H]12 (stereo partly drawn)
inactive

* * *

- Test system: JCK
- Measurement Notes: qHTS profiling for inhibitors of Plasmodium falciparum proliferation (AID 504749); note: nearly all actives have a fitted effect of over 60% in size
- Condition Label: P. falciparum in erythrocytes, SYBR Green DNA, 72 h; series mostly up to 28.7 µM
Results filed as inconclusive are left out. The source made the active and inactive calls. Calls follow the shape of the dose curve; as a rule, active = well fitted inhibition curve with a large enough effect; inconclusive = small, poorly fitted or top-dose-only effect; inactive = flat fitted curve, though single readings scatter.
// classify into active, inactive

Reference set (4 entries):
[[record]]
compound = "O=C(O)[C@H]1C[C@@H](CP(=O)(O)O)CCN1"
assigned_class = "inactive"

[[record]]
compound = "NC(=O)NC(CCC(=O)O)C(=O)O (stereo unspecified)"
assigned_class = "inactive"

[[record]]
compound = "NC(=O)c1ncn(C2OC(CO)C(O)C2O)c1N (stereo unspecified)"
assigned_class = "inactive"

[[record]]
compound = "CC(CCC(=O)O)C1CCC2C3C(=O)C[C@@H]4CC(=O)CC[C@@]4(C)C3CC(=O)[C@]12C (stereo partly specified)"
assigned_class = "inactive"


For Cc1ccc(/C=C2/C(=O)C3(C)CCC2C3(C)C)cc1 (stereo unspecified) , what call appears in the results of this test?
inactive

Moving on to CC(CN1CC(=O)NC(=O)C1)N1CC(=O)NC(=O)C1 (stereo unspecified)
inactive

Entry to check: CCN1CCN(C(=O)NC(C(=O)NC2C(=O)N3C(C(=O)O)=C(CSc4nnnn4C)CSC23)c2ccc(O)cc2)C(=O)C1=O (stereo unspecified)
inactive

Same for NC(CSSCC(N)C(=O)O)C(=O)O (stereo unspecified)
inactive

Cool, now CCCC(=O)Nc1c(I)cc(I)c(C[C@H](CC)C(=O)O)c1I
inactive

Do the same for COc1cccc(OC)c1C(=O)NC1C(=O)N2C1SC(C)(C)C2C(=O)O (stereo unspecified) please
inactive

Also C=C(NCc1ccccc1)c1ccccc1O , if possible.
inactive

* * *

- Tested on: CP260
- Measurement Notes: qHTS profiling for inhibitors of Plasmodium falciparum proliferation (AID 504749); note: nearly all actives have a fitted effect of over 60% in size
- Condition Label: P. falciparum in erythrocytes, SYBR Green DNA, 72 h; series mostly up to 28.7 µM
Inconclusive results are not listed. Calls of active or inactive are those of the source. The call rests on the fitted dose curve; in most records, active means well fitted inhibition curve with a large enough effect; inconclusive means small, poorly fitted or top-dose-only effect; inactive means flat fitted curve, though single readings scatter.
The reply should name one outcome from true (1) = active, false (0) = inactive

Use the examples below as a reference point.
[[record]]
compound = "COc1ccc(C(=O)/C(Br)=C/C(=O)O)cc1"
assigned_class = "false (0)"

[[record]]
compound = "CNC1C(O)C(OC2C(N)CC(N)C(OC3OC(CN)=CCC3N)C2O)OCC1(C)O (stereo not drawn)"
assigned_class = "false (0)"


Hey, what did the test say about CC[C@@H]1/C=C(\C)C[C@H](C)C[C@H](OC)[C@H]2O[C@@](O)(C(=O)C(=O)N3CCCC[C@H]3C(=O)O[C@H](/C(C)=C/[C@@H]3CC[C@H](Cl)[C@H](OC)C3)[C@H](C)[C@@H](O)CC1=O)[C@H](C)C[C@@H]2OC ?
false (0)

Next compound: CCCCC(=O)OCC(=O)[C@]1(O)Cc2c(O)c3c(c(O)c2[C@H](OC2CC(NC(=O)C(F)(F)F)C(O)C(C)O2)C1)C(=O)c1c(OC)cccc1C3=O (stereo partly drawn)
true (1)

Now this one: Cc1ccc(/C=C2/C(=O)C3(C)CCC2C3(C)C)cc1 (stereo not drawn)
false (0)

Next entry: O=[N+]([O-])O[C@H]1CO[C@H]2[C@@H]1OC[C@H]2O
false (0)

Here is the next compound: CC(O)C1CCC2C3CCC4CC(O)CCC4(C)C3CCC12C (stereo not drawn)
false (0)

Now consider NC(=O)OC[C@@H]1[C@H](NC(=O)/C(=N/OCC(=O)O)c2csc(N)n2)C(=O)N1S(=O)(=O)O .
false (0)

* * *

- Measurement Notes: AP1 Signaling Pathway (AID 357);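 note: ME-180 reporter cells stimulated with EGF at its EC50 level; % is set by controls: 0 for no effect and ±100 for the full control effect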
- Condition Label: ME-180 (cervical carcinoma) AP-1-bla reporter, EGF-induced, beta-lactamase ratio, 5 h; at 17.2 µM (top of the series) unless noted
Inconclusive results are not listed. The source made the active and inactive calls. Calls come from the whole dose curve; as a rule, active = well fitted curve in either direction with a large enough effect (not every such curve was filed as active); inconclusive = small, poorly fitted or top-dose-only effect, or another doubt; inactive = flat fitted curve, though single readings scatter.
Measured Quantity: activity change, negative = inhibition

[[record]]
molecule = "C=C(C)CSc1nc(N)c2c3c(sc2n1)CCC3"
measured_quantity = "activity change, negative = inhibition"
experimental_result = "-27.1% (inactive)"

[[record]]
molecule = "CC(C)C1Cc2c(sc3c2c(=O)n(Cc2ccccc2)c2nncn32)CO1 (stereo unspecified)"
measured_quantity = "activity change, negative = inhibition"
experimental_result = "-0.408% (inactive)"

[[record]]
molecule = "COc1ccccc1N(O)C1CC(=O)N(c2ccc(F)cc2)C1=O (stereo unspecified)"
measured_quantity = "activity change, negative = inhibition"
experimental_result = "-0.204% (inactive)"

[[record]]
molecule = "CCOC(=O)C1=C(C)NC(C)=C(C(=O)OC)[C@@H]1c1cccc(Cl)c1Cl"
measured_quantity = "activity change, negative = inhibition"
experimental_result = "-13.1% (inactive)"


Look up activity change, negative = inhibition: CNc1oc(-c2ccc(Cl)cc2)nc1C#N
-1.98% (inactive)

Could you do the same for CCOc1nc(Oc2cccc(C(=O)O)c2)nc(Oc2cccc(C(=O)O)c2)n1 , please?
29.4% (inactive)

Input O=C(NC1CCS(=O)(=O)C1)c1c(NC(=O)C2COc3ccccc3O2)sc2c1CCCC2 (stereo unspecified)
-20.8% (inactive)

Likewise for O=C(CCN1CCc2ccccc2CC1)c1ccc2c(c1)OCCO2 ?
-22% (inactive)

Another: CCOC(=O)c1ccc(CC2S/C(=C(\C#N)C(C)=O)NC2=O)cc1 (stereo unspecified)
-24.1% (inactive)

Try this molecule too: C=CCn1c(SCC(=O)OC)nc2sc3c(c2c1=O)CCN(C)C3
-12.5% (inactive)

Try COc1ccc(C(CC(=O)N2CCOCC2)C(C)C)cc1 (stereo unspecified) next.
8.67% (inactive)

Please give the result for CO[C@H]1C=CO[C@@]2(C)Oc3c(C)c(O)c4c(O)c(c(C=NN5CCN(C)CC5)c(O)c4c3C2=O)NC(=O)C(C)=CC=C[C@H](C)[C@H](O)[C@@H](C)[C@@H](O)[C@@H](C)[C@H](OC(C)=O)[C@@H]1C too.
-3.11% (inactive)

Now try CCCSc1nc(C)c(CC(=O)OCC)c(=O)[nH]1 .
-4.57% (inactive)

Quick one: CC(C)COc1ccc(C(=O)OCCN2CCOCC2)c(O)c1
1.3% (inactive)

Now consider C=CCN(C(=O)CCC(=O)O)C1CC(=O)N(c2ccc(OCCC)cc2)C1=O (stereo unspecified) .
3.6% (inactive)

Another: Cc1ccc(C(=O)/C=C/Nc2ccccn2)cc1
11% (inactive)

Same question, CCOC(=O)CC(=O)CSc1[nH]c(=O)cc(C)c1C#N this time
8.86% (inactive)

Next record, please: COc1cccc(OC)c1OCCNC[C@@H]1CSc2ccccc2O1
18% [at 38 µM] (inactive)

Moving on to the next molecule: CCCCSc1nc(O)c(C2OC(=O)c3c2ccc(OC)c3OC)c(=O)n1C (stereo unspecified)
-4.1% (inactive)

Item: NC(=S)c1ccc[n+]([C@@H]2O[C@@H](COP(=O)([O-])OP(=O)(O)OC[C@@H]3O[C@@H](n4cnc5c(N)ncnc54)[C@@H](OP(=O)(O)O)[C@H]3O)[C@@H](O)[C@H]2O)c1
5.32% [at 38 µM] (inactive)

Moving on to the next molecule: COC(=O)c1ccc(C2C(C(=O)c3cc4ccccc4o3)=C(O)C(=O)N2CCCN(C)C)cc1 (stereo unspecified)
-0.991% (inactive)
